# experimental protocol: Antioxidant activity in microsomes assessed as inhibition of lipid peroxidation by measuring MDA level at 200 ug/ml by spectrophotometry based TBARS method
# Type: functional
Listed compounds paired with reported inhibition
Use % as the unit, but write only the number.

| compound | inhibition, % |
| --- | --- |
| CCOC(=O)CCCOc1ccc(NC(=O)COc2ccc3ccccc3c2)cc1 | 29 |

Exercise: Entry CCOC(=O)C(C)Oc1ccc(NC(=O)CSc2ccc3ccccc3c2)cc1 (configuration not stated) : reported inhibition = ?
Solution: 35

====

# System: Rattus norvegicus
# experimental protocol: Antidyslipidemic activity in Triton fed hyperlipidemic Charles Foster rat assessed as reduction in plasma total cholesterol at 100 mg/kg, po
# Type: functional
# Set-up: scale not given: the % may be the effect or the level left
Readings of Activity for the listed compounds
Please reply with the bare figure in % and do not write the unit itself.

Some compounds with known Activity results, for comparison:
| compound | system | unit spec | measurement |
| --- | --- | --- | --- |
| CCOC(=O)C(C)Oc1ccc(NC(=O)COc2ccc3ccccc3c2)cc1 (stereo not drawn) | Rattus norvegicus | % | 23 |
| CCOC(=O)CCCOc1ccc(NC(=O)COc2ccccc2C(C)CC)cc1 (stereo not drawn) | Rattus norvegicus | % | 9 |

// next entry
Exercise: Recorded Activity for `CCOC(=O)COc1ccc(NC(=O)COc2ccc3ccccc3c2)cc1` , please?
Solution: 14
